Would you kindly list ELISA OD for each of these binders?
Target entity: T1, 15-mer peptide LGIWGCSGKLICTTT (SEQ ID NO:1) (HIV, not fully specified; cysteine pairing not given here)
T1 construct: also called U1731DB060-1; U173DB060-1
T1 peptide: LGIWGCSGKLICTTT
Assay protocol: indirect ELISA; 15-mer peptide coated 1 ug/ml in DTT; antibody at 1000 ng/ml
No end group written: not given here.
Write the value in OD as a bare number.

Would you mind telling me what ELISA OD value was observed for HIV-binding peptide #2 (antibody, human IgG1, kappa, V domains shown, Recombinant, fully human immunoglobulin; also called U1205DB020-2) VH: QVQLQESGGGVVQPGRSLRLSCAASGFTFSSYAIHWVRQAPGKGLEWVAVISYDGSNRYYADSVKGRFTISRDNSKNTLYLQMNSLRPEDTAVYYCARDRFSAVASTPTYHNYFYMDVWGKGTTVTVSS VL: DIQMTQSPSSLSASVGDRVTITCQASQDINNYLAWYQQKPGQAPRLLIYDASNLETGVPSRFSGSGSGTDFTLTISSLQPEDLATYYCQQYDNTPYTFGQGTKLEIKR ?
0.068

Would you mind telling me what ELISA OD value was observed for HIV-binding peptide #8 (antibody, human IgG1, kappa, V domains shown, Recombinant, fully human immunoglobulin; also called U1205DB020-8) VH: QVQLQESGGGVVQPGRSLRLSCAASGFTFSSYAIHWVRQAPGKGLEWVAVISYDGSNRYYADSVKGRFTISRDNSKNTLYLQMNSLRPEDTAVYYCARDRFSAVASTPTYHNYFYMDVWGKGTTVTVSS VL: DIQMTQSPSSLSASVGDRVTITCQASQDISNYLAWYQQKPGQAPRLLIYDASNLETGVPSRFSGSGSGTDFTLTISSLQPEDLATYYCQQYDNLPYTFGQGTKLEIKR ?
0.076
